System: HT29 colon
Assay: NCI-60 one-dose screen, 48 h
Settings: 10 µM unless noted
About 83,000 compounds went through this panel and 20% of them were active in at least one assay; those are over-represented in the sample as a whole. The source made the active and inactive calls. Rule for the calls: active = growth percent below 10; inactive = the rest.
Outcome codes: Yes for active, No for inactive

compound	group
Cc1ccc(NS(=O)(=O)c2ccc(-c3cnc(C4CC4)o3)cc2)cc1	No
Cc1ccc(S(=O)(=O)N(c2ccc(Cl)cc2)c2ccc(Br)cc2C(=O)O)cc1	No
CCC(C)[C@H]1O[C@]2(CC[C@@H]1C)C[C@@H]1C[C@@H](C/C=C(\C)[C@@H](OC3C[C@H](OC)C(O[C@H]4C[C@H](OC)[C@@H](O)[C@H](C)O4)[C@H](C)O3)[C@@H](C)/C=C/C=C3\CO[C@@H]4[C@H](O)C(C)=C[C@@H](C(=O)O1)[C@]34O)O2 (some centres undefined)	Yes
COc1ccc(-n2ncc3c4nc(OC)c(S(=O)(=O)c5ccccc5)cc4ccc32)cc1	No
CC(C)(C)[Si](C)(C)OC1[C@@H](COC(=O)NC(=O)CCl)O[C@@H](n2cnc3c(N)ncnc32)[C@H]1O[Si](C)(C)C(C)(C)C (some centres undefined)	No
O=C1Nc2ccc(Cl)cc2/C1=N/N=C(c1ccccc1)c1ccccc1	No
COc1cc(NC(=O)COc2ccccc2)c(C(N)=O)cc1OC	Yes
O=c1c2c(=NCCN3CCCC3)cc3c(=O)n(CCCN4CCOCC4)c(=O)c4ccc(c(O)n1CCCN1CCOCC1)c2c4-3	Yes
COc1ccc(-c2nn(-c3ccc(NC(=O)c4ccc(Cl)c(Cl)c4)cc3)cc2-c2ccncc2)cc1Cl	Yes

###

Recorded growth by entry
System: SK-OV-3 ovarian
Experiment: NCI-60 one-dose screen, 48 h (100 = growth as untreated, 0 = no growth, -100 = all killed)
Conditions: 10 µM
This is part of a sample that, as a whole, favours compounds with a hit. Of some 83,000 tested, about 20% had one in any assay.
propertyMeasured: growth (%)

>>> df
                                   molecule  systemundertest  recordedvalue
0      Clc1nc(-c2ccccn2)nc2sc3c(c12)CCCCCC3  SK-OV-3 ovarian            105
1  CC1(C)CC(=O)C2=C(C1)Nc1cc3c(cc1C2c1ccc(F)cc1)OCO3 (stereo not given)  SK-OV-3 ovarian           97.6
2  COc1cc(/C=C/C(=O)C2=C(/C=C/c3ccc(O)c(OC)c3)NC(=O)NC2c2ccc(O)c(OC)c2)ccc1O (stereo not given)  SK-OV-3 ovarian            116
3  COc1cccc(OC(=O)c2ccccc2)c1OC(=O)c1ccccc1  SK-OV-3 ovarian           90.4
4  COc1ccc(/C=C2\CN(Cc3cn(CCCNc4ccnc5cc(Cl)ccc45)nn3)C/C(=C\c3ccc(OC)c(OC)c3)C2=O)cc1OC  SK-OV-3 ovarian           36.5

###

Test system: LOX IMVI melanoma
Assay: NCI-60 one-dose screen, 48 h
Conditions: 10 µM unless noted
The panel holds about 83,000 compounds, 20% with a hit somewhere; the sample as a whole holds those more often. Calls of active or inactive are those of the source. The calls were made as follows: active = growth percent below 10; inactive = the rest.
Outcome codes: 1.0 = active, 0.0 = inactive

>>> print(df.to_string())
                                   compound    systemundertest  group
0  Clc1ccc2c(c1)C[C@H]1C[C@@H](c3cccs3)N2O1  LOX IMVI melanoma    0.0
1  COc1ccc(C2SC(C)C(=O)N2CCc2cccs2)cc1OC (centres undefined)  LOX IMVI melanoma    0.0
2   Cn1c2ccccc2c2nn(C(=O)c3ccccc3)c(=O)nc21  LOX IMVI melanoma    0.0
3  O=C1c2ccccc2-c2cn(Cc3ccccc3)c3cccc(c23)C1c1cccnc1 (centres undefined)  LOX IMVI melanoma    0.0
4            O=C(O)CCN1CCN(c2cccc(Cl)c2)CC1  LOX IMVI melanoma    0.0
5      O=C(NCc1cccnc1)c1ccc([N+](=O)[O-])o1  LOX IMVI melanoma    1.0
6  O=C(C[Si](CC(=O)c1cccc(C(F)(F)F)c1)CC(=O)c1cccc(C(F)(F)F)c1)c1cccc(C(F)(F)F)c1  LOX IMVI melanoma    0.0
7  O=C(c1ccccc1)C(Br)C(Br)c1cccc([N+](=O)[O-])c1 (centres undefined)  LOX IMVI melanoma    1.0
8        c1ccc2c(c1)oc1cc3c(cc12)nnc1cccn13  LOX IMVI melanoma    0.0
